Test system: A2780 cells
Assay: In vitro cell proliferation assay (WST-1 assay)
Type: cell-based
Settings: Homo sapiens, total incubation time 72 h, WST-1 viable cell readout
VALUE TYPE: IC50 (nM)

Worked examples, 6 compounds total:
COMPOUND	VALUE UNITS	IC50
O=C(CCCCCCNC(=S)NCc1cccnc1)N(OCCN1CCOCC1)C1CCCCC1 [Compound 1015]	nM	0.89
O=C(NCCCCCCS(=O)(=O)N(CCF)OCC1CCCCC1)Nc1ccncc1 [Compound 1088]	nM	0.13
COCCOCCOCCN(OCC1CCCCC1)S(=O)(=O)CCCCCCNC(=O)NCc1cccnc1 [Compound 1013]	nM	0.11
O=C(NCCCCCCS(=O)(=O)N(OCCN1CCOCC1)C1CCCCC1)Nc1ccncc1 [Compound 1008]	nM	0.23
CC(C)N(OCCN1CCOCC1)S(=O)(=O)CCCCCCNC(=O)NCc1cccnc1 [Compound 1022]	nM	2.23
O=S(=O)(CCCCCNC(=S)Nc1ccncc1)N(OCCN1CCOCC1)C1CCCC1 [Compound 1083]	nM	3.92

[a] O=C(NCCCCCCS(=O)(=O)N(CCF)OCC1CCCCC1)NCc1cccnc1 [Compound 1089]
[b] O=C(NCCCCCCS(=O)(=O)N(CCN1CCOCC1)OCc1ccccc1)NCc1cccnc1 [Compound 1078]
Which item exceeds the other in IC50, a or b ? State your choice using its label.
a

###

Test system: A2780 cells
Assay: In vitro cell proliferation assay (WST-1 assay)
Format: cell-based
Conditions: Homo sapiens, total incubation time 72 h, WST-1 viable cell readout
VALUE TYPE: IC50 (nM)

Example compounds with recorded IC50:
COMPOUND	VALUE UNITS	READING
O=C(NCCCCCCS(=O)(=O)N(CCN1CCOCC1)OCC1CCCCC1)NCCc1cccnc1	nM	14.1
O=C(NCCCCCCC(=O)N(OCCN1CCOCC1)C1CCCCC1)Nc1cccnc1	nM	0.22
O=C(NCCCCCS(=O)(=O)N(CCCN1CCOCC1)C1CCCC1)NCc1cccnc1	nM	3.04
O=C(NCCCCCCS(=O)(=O)N(OCCN1CCOCC1)C1CCCCCC1)NCc1cccnc1	nM	0.63
O=C(NCCCCCCS(=O)(=O)N(CCCN1CCOCC1)C1CCCCC1)Nc1ccncc1	nM	0.23
O=C(NCCCCCCC(=O)N(OCCN1CCOCC1)C1CCCCC1)Nc1ccncc1	nM	1.49
O=S(=O)(CCCCCCNC(=S)Nc1ccncc1)N(CCCN1CCOCC1)C1CCCCC1	nM	0.83
CC(C)N(CCCN1CCOCC1)S(=O)(=O)CCCCCCNC(=O)Nc1ccncc1	nM	0.6

[a] O=C(/C=C/c1cccnc1)NCCCCC1CCN(C(=O)c2ccccc2)CC1 [FK866, reference compound]
[b] O=C(NCCCCCCS(=O)(=O)N(OCCN1CCOCC1)C1CCCC1)NCc1cccnc1
Please tell me which of the two, a or b , has the higher reported IC50 value. // output: label of the selected item
b
(b: 0.58 nM, a: 0.1 nM)

###

Tested on: A2780 cells
Experiment: In vitro cell proliferation assay (WST-1 assay)
Format: cell-based
Conditions: Homo sapiens, total incubation time 72 h, WST-1 viable cell readout
Description: A2780 cells were seeded in 96-well plates at 3×10^3 cells/well in 100 μL of culture medium, 8 wells were left empty for media only controls. After 24 h the compound titrations were performed, in a separate dilution plate, by serially diluting the compounds of general formula (I) in culture medium. […] The number of viable cells was then assessed using Cell Proliferation Reagent WST-1. […] The absorbance was measured (450 nm/690 nm). […]
Structures can show the parent of a compound that is named as a salt.
VALUE TYPE: IC50 (nM)

Reference set, count: 2
COMPOUND	TESTED ON	VALUE TYPE	VALUE UNITS	READING
O=C(NCCCCCCS(=O)(=O)N(OCCN1CCOCC1)C1CCCC1)Nc1ccncc1 [Compound 1090]	A2780 cells	IC50	nM	0.15
O=C(NCCCCCCS(=O)(=O)N(CCCN1CCOCC1)C1CCCC1)Nc1ccncc1 [Compound 1066]	A2780 cells	IC50	nM	0.27

[P] O=C(NCCCCCCS(=O)(=O)Nc1ccccc1)NCc1cccnc1 [Compound 1076]
[Q] O=S(=O)(CCCCCCNC(=S)Nc1ccncc1)N(OCCN1CCOCC1)C1CCCCC1 [Compound 1005]
Returns the identifier with the smallest measured IC50 among P and Q . Record your answer as the label of the chosen record.
Q
(Q: 0.34 nM, P: 5.4 nM)

[I] O=C(NCCCCCS(=O)(=O)N(OCCN1CCOCC1)C1CCCCC1)NCc1cccnc1 [Compound 1042]
[II] O=C(NCCCCCCS(=O)(=O)N(OCCN1CCOCC1)C1CCCCC1)NCc1cccnc1 [Compound 1075, oxalate]
[III] O=S(=O)(CCCCCCNC(=S)Nc1ccncc1)N(CCCN1CCOCC1)C1CCCC1 [Compound 1064]
[IV] O=S(=O)(CCCCCCNC(=S)Nc1ccncc1)N(OCCN1CCOCC1)C1CCCC1 [Compound 1082]
Ordering criterion: IC50; begin with the maximum. Answer by listing the labels in the order asked for.
I, II, III, IV

[P] O=C(NCCCCCCC(=O)N(OCCN1CCOCC1)C1CCCCC1)NCCc1cccnc1 [Compound 1020]
[Q] O=C(NCCCCCCS(=O)(=O)N1CCCCO1)NCc1cccnc1 [Compound 1018, hydrochloride]
Compare P and Q by numeric IC50 and name the larger one. Answer = label.
Q

[P] O=C(NCCCCCCS(=O)(=O)N(CCN1CCOCC1)OCC1CCCCC1)NCc1cccnc1 [Compound 1031]
[Q] O=C(NCCCCCCCS(=O)(=O)N(OCCN1CCOCC1)C1CCCCC1)NCc1cccnc1 [Compound 1043]
[R] O=C(NCCCCCCS(=O)(=O)NOCC1CCCCC1)Nc1ccncc1 [Compound 1001]
[S] O=S(=O)(CCCCCCNC(=S)Nc1ccncc1)N(CCF)OCC1CCCCC1 [Compound 1087]
// ranking: key=IC50, reverse=True Respond with the label ranking, as requested.
R, S, Q, P

###

# key: entry, value: IC50
Tested on: A2780 cells
Assay: In vitro cell proliferation assay (WST-1 assay)
Format: cell-based
Details: Homo sapiens, total incubation time 72 h, WST-1 viable cell readout
Procedure: A2780 cells were seeded in 96-well plates at 3×10^3 cells/well in 100 μL of culture medium, 8 wells were left empty for media only controls. After 24 h the compound titrations were performed, in a separate dilution plate, by serially diluting the compounds of general formula (I) in culture medium. […] The number of viable cells was then assessed using Cell Proliferation Reagent WST-1. […] The absorbance was measured (450 nm/690 nm). […]
Dear colleague, please return just the value in nM, with no unit written.

Sample answers from the record:
COMPOUND	TESTED ON	VALUE UNITS	READING
O=C(NCCCCCCC(=O)N(OCCN1CCOCC1)C1CCCCC1)NCc1cccnc1	A2780 cells	nM	0.33
CCOP(=O)(CCCCCCNC(=O)NCc1cccnc1)N1CCCCO1 (stereo not drawn)	A2780 cells	nM	2.4

With those in mind, consider the next compound.
What does the data say about its IC50? Entry: CCOP(=O)(CCCCCCNC(=O)NCc1cccnc1)NC1CCCCC1 (stereo not drawn)
0.79
